PROCEDURE_SUMMARY: Rat pharmacokinetic profile
DETAILS: in vivo, iv, I.V., read-out: Rat I.V. T1/2 (converted)
Measured half-life values are reported for all entries that follow.
Give just the number in h; leave the unit off.

In [3]: df
Out[3]:
                                   compound  units_of_measure  test_value
0  COc1cc2nccc(Oc3ccc4c(c3)OCCN4C(=O)Nc3cc(C)on3)c2cc1OC                 h         2.1

Note: attention shifts to another entry.
response.value for COc1cc2nccc(Oc3ccc4c(c3)OCCN4C(=O)Nc3ccon3)c2cc1OC [Reference Compound 1, reference compound] (field: half-life) = 4.73

* * *

PROCEDURE_SUMMARY: Exposure (AUC) in the rat corneal angiogenesis study
Assay type: in vivo
DETAILS: female, CD, rat, in vivo, oral, 0.03 mg/kg, Table 3, free base, 0.03 mg/kg daily
MEASUREMENT_KIND: AUC (ng·h/mL)
Give just the number in ng·h/mL; leave the unit off.

response.value for `COc1cc2nccc(Oc3ccc4c(c3)OCCN4C(=O)Nc3cc(C)on3)c2cc1OC` (field: AUC) = 109

* * *

PROCEDURE_SUMMARY: Exposure (AUC) in the rat corneal angiogenesis study
Type: in vivo
DETAILS: female, CD, rat, in vivo, 0.01 mg/kg, Table 5, HCl salt Run #2, 0.01 mg/kg daily
Counter-ions that a name gives are not always drawn.
MEASUREMENT_KIND: AUC
State the result as a value with its unit after it.

response.value for COc1cc2nccc(Oc3ccc4c(c3)OCCN4C(=O)Nc3cc(C)on3)c2cc1OC [Compound A (HCl Salt)] (field: AUC) = 95.8 ng·h/mL

* * *

PROCEDURE_SUMMARY: Rat pharmacokinetic profile
DETAILS: in vivo, po, 2 mg/kg, P.O., 2 mpk, read-out: Rat P.O. (2 mpk) % F
MEASUREMENT_KIND: bioavailability

response.value for `COc1cc2nccc(Oc3ccc4c(c3)OCCN4C(=O)Nc3cc(C)on3)c2cc1OC` (field: bioavailability) = 59%

response.value for COc1cc2nccc(Oc3ccc4c(c3)OCCN4C(=O)Nc3ccon3)c2cc1OC [Reference Compound 1, reference compound] (field: bioavailability) = 67%

* * *

PROCEDURE_SUMMARY: Rat pharmacokinetic profile
DETAILS: in vivo, po, 2 mg/kg, P.O., 2 mpk, read-out: Rat P.O. (2 mpk) AUC0-inf
MEASUREMENT_KIND: AUC(0-inf) (ng·h/mL)
Give just the number in ng·h/mL; leave the unit off.

>>> print(df.to_string())
                                   compound  measurement_kind  test_value
0  COc1cc2nccc(Oc3ccc4c(c3)OCCN4C(=O)Nc3ccon3)c2cc1OC [Reference Compound 1, reference compound]        AUC(0-inf)        1710

Note: attention shifts to another entry.
response.value for `COc1cc2nccc(Oc3ccc4c(c3)OCCN4C(=O)Nc3cc(C)on3)c2cc1OC` (field: AUC(0-inf)) = 2810

* * *

PROCEDURE_SUMMARY: Rat pharmacokinetic profile
DETAILS: in vivo, intravenous, read-out: Rat Volume of Distribution
MEASUREMENT_KIND: Vd (L/kg)
Give just the number in L/kg; leave the unit off.

>>> df
                                   molecule  test_value
0  COc1cc2nccc(Oc3ccc4c(c3)OCCN4C(=O)Nc3cc(C)on3)c2cc1OC           1

response.value for COc1cc2nccc(Oc3ccc4c(c3)OCCN4C(=O)Nc3ccon3)c2cc1OC [Reference Compound 1, reference compound] (field: Vd) = 1

* * *

PROCEDURE_SUMMARY: Exposure (AUC) in the rat corneal angiogenesis study
Assay type: in vivo
DETAILS: female, CD, rat, in vivo, 0.3 mg/kg, Table 5, HCl salt Run #2, 0.3 mg/kg daily
Structures can show the parent of a compound that is named as a salt.
MEASUREMENT_KIND: AUC (ng·h/mL)
Give just the number in ng·h/mL; leave the unit off.

response.value for COc1cc2nccc(Oc3ccc4c(c3)OCCN4C(=O)Nc3cc(C)on3)c2cc1OC [Compound A (HCl Salt)] (field: AUC) = 3900

* * *

PROCEDURE_SUMMARY: Exposure (AUC) in the rat corneal angiogenesis study
Assay type: in vivo
DETAILS: female, CD, rat, in vivo, oral, 0.03 mg/kg, Table 6, HCl salt Run #3, 0.03 mg/kg daily
Where a name gives a salt, the structure may show the parent alone.
MEASUREMENT_KIND: AUC (ng·h/mL)
Give just the number in ng·h/mL; leave the unit off.

response.value for COc1cc2nccc(Oc3ccc4c(c3)OCCN4C(=O)Nc3cc(C)on3)c2cc1OC [Compound A (HCl Salt)] (field: AUC) = 80.2

* * *

PROCEDURE_SUMMARY: Exposure (AUC) in the rat corneal angiogenesis study
Format: in vivo
DETAILS: female, CD, rat, in vivo, oral, 1 mg/kg, Table 3, free base, 1.0 mg/kg daily
MEASUREMENT_KIND: AUC
State the result as a value with its unit after it.

response.value for `COc1cc2nccc(Oc3ccc4c(c3)OCCN4C(=O)Nc3cc(C)on3)c2cc1OC` (field: AUC) = 2370 ng·h/mL

* * *

PROCEDURE_SUMMARY: Exposure (AUC) in the rat corneal angiogenesis study
Assay type: in vivo
DETAILS: female, CD, rat, in vivo, oral, 0.3 mg/kg, Table 3, free base, 0.3 mg/kg daily
MEASUREMENT_KIND: AUC (ng·h/mL)
Give just the number in ng·h/mL; leave the unit off.

response.value for `COc1cc2nccc(Oc3ccc4c(c3)OCCN4C(=O)Nc3cc(C)on3)c2cc1OC` (field: AUC) = 730

* * *

PROCEDURE_SUMMARY: Exposure (AUC) in the rat corneal angiogenesis study
Assay type: in vivo
DETAILS: female, CD, rat, in vivo, oral, 0.1 mg/kg, Table 6, HCl salt Run #3, 0.1 mg/kg daily
Where a name gives a salt, the structure may show the parent alone.
MEASUREMENT_KIND: AUC (ng·h/mL)
Give just the number in ng·h/mL; leave the unit off.

response.value for COc1cc2nccc(Oc3ccc4c(c3)OCCN4C(=O)Nc3cc(C)on3)c2cc1OC [Compound A (HCl Salt)] (field: AUC) = 322

* * *

PROCEDURE_SUMMARY: Rat pharmacokinetic profile
DETAILS: in vivo, intravenous
Measured clearance values are reported for all entries that follow.
Give just the number in mL/min/kg; leave the unit off.

                                   molecule  test_value
0  COc1cc2nccc(Oc3ccc4c(c3)OCCN4C(=O)Nc3ccon3)c2cc1OC [Reference Compound 1, reference compound]        13.3

response.value for `COc1cc2nccc(Oc3ccc4c(c3)OCCN4C(=O)Nc3cc(C)on3)c2cc1OC` (field: clearance) = 6.67

* * *

PROCEDURE_SUMMARY: Exposure (AUC) in the rat corneal angiogenesis study
Assay type: in vivo
DETAILS: female, CD, rat, in vivo, 1 mg/kg, Table 4, HCl salt Run # 1, 1.0 mg/kg daily
Where a name gives a salt, the structure may show the parent alone.
MEASUREMENT_KIND: AUC (ng·h/mL)
Give just the number in ng·h/mL; leave the unit off.

response.value for COc1cc2nccc(Oc3ccc4c(c3)OCCN4C(=O)Nc3cc(C)on3)c2cc1OC [Compound A (HCl Salt)] (field: AUC) = 3640
